# testSystem: HLA-A*02:01 (Homo sapiens, UniProt P04439, D140Y/D185E/D98H/E176V/E277Q/G131W/G231S/I119V/I121R/I166T/I218V/L300P/L318F/N151K/N90K/P208A/P217A/Q86G/Q94H/R138H/R169H/T345S)
# assay: MHC binding assay (UV-ligand exchange, ELISA of exchange yield)
# reportedConditions: binding to HLA-A*02:01, UV-ligand exchange
readout: Peptide exchange (MHC class I binding score, peptide exchange yield)

Examples from the recorded data:
# substance, val
measured = [
    ("341 (SQIALNEKLVNL; listed as Homo sapiens) [compound 341]", "“+++” (≥50 = +++)"),
    ("146 (SLATAGDGLIEL; listed as Homo sapiens) [compound 146]", "“++” (≥20% = ++)"),
    ("523 (YQIPRTFTL; listed as Homo sapiens) [compound 523]", "“++” (≥20% = ++)"),
    ("114 (SLVGEPILQNV; listed as Homo sapiens) [compound 114]", "“++” (≥20% = ++)"),
]

State the recorded Peptide exchange (MHC class I binding score, peptide exchange yield) for every item in the following list.
1. 74 (ALLDPEVLSIFV; listed as Homo sapiens) [compound 74]
2. 199 (ALQDVPLSSV; listed as Homo sapiens) [compound 199]

“+++” (≥50 = +++)
“+++” (≥50 = +++)

Note down Peptide exchange (MHC class I binding score, peptide exchange yield) recorded for 394 (LLAVIGGLVYL; listed as Homo sapiens) [compound 394]
“+++” (≥50 = +++)
